# Tgt: Neuronal acetylcholine receptor subunit alpha-4/beta-2 (Rattus norvegicus, UniProt P09483+P12390)
# Sequence (P09483 whole entry): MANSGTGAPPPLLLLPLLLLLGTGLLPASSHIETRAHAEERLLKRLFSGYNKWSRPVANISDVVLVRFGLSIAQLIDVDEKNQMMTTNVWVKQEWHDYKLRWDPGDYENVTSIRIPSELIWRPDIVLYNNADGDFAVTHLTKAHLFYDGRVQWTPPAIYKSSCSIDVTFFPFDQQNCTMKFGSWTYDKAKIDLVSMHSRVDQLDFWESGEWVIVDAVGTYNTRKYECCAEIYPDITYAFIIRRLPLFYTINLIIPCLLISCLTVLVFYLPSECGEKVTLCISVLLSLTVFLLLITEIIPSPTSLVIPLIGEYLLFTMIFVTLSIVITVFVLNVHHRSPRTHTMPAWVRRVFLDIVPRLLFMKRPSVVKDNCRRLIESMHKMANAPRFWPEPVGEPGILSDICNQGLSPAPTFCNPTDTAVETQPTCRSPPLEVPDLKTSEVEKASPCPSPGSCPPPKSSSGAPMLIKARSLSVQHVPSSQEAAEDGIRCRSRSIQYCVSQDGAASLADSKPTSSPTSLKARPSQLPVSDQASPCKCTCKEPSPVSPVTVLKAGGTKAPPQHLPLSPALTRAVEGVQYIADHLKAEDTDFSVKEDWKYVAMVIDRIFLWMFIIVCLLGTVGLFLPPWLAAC
# Sequence (P12390 whole entry): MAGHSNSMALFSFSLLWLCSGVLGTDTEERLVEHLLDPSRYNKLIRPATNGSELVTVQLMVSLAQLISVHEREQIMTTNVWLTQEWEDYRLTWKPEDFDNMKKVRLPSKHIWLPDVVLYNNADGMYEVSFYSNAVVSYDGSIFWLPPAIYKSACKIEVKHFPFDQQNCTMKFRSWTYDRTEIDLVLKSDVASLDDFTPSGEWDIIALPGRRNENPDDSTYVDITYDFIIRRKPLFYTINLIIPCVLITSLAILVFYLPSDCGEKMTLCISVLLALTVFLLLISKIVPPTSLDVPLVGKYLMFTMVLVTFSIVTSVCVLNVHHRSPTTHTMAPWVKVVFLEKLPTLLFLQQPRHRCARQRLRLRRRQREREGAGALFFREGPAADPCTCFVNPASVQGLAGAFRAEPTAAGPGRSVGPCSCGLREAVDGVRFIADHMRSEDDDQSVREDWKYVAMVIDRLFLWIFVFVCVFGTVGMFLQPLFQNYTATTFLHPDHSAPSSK
# Measurement description: Inhibition of [3H]epibatidine binding to Nicotinic acetylcholine receptor alpha4-beta2 in rat cerebral cortex
Quantity kind: pKi
To interpret pKi, take it as minus log10 of a concentration measured in moles per litre.

For Clc1cncc(C2CC3CCC2N3)c1 (stereo unspecified) , write its pKi. 10.22
